biological target: Free fatty acid receptor 1 (Homo sapiens, UniProt O14842); test: Agonist activity at N-terminal FLAG tagged human FFAR1 transfected in African green monkey COS-7 cells assessed as accumulation of inositol phosphate incubated for 90 mins by TopCount NXT counter based analysis
Sequence (O14842 whole entry): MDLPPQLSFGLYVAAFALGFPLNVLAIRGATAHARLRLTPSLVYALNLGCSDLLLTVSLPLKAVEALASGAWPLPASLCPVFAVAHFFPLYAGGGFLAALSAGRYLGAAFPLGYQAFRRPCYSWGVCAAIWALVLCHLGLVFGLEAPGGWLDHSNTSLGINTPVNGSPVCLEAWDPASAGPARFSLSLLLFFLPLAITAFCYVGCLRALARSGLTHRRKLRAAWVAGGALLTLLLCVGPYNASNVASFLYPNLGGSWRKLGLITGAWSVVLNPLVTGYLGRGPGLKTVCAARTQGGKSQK
pEC50: recorded values
pEC50 here: minus log base 10 of the concentration, concentration in moles per litre.

Reference set, count: 4
Molecule | Target Under Test | pEC50
Cc1ccc(Nc2nc(N)nc(COc3ccc4c(C)cc(=O)oc4c3)n2)cc1 | Free fatty acid receptor 1 (Homo sapiens, UniProt O14842) | 5.75
Cc1cc(OCc2nc(N)nc(NCCc3cccc(F)c3)n2)cc(N2CCCC2=O)c1 | Free fatty acid receptor 1 (Homo sapiens, UniProt O14842) | 7.30
Cc1cc(OCc2nc(N)nc(NCCc3cc(Cl)ccc3Cl)n2)cc(N2CCCC2=O)c1 | Free fatty acid receptor 1 (Homo sapiens, UniProt O14842) | 9.00
Cc1cc(OCc2nc(N)nc(NCCc3ccc(C)cc3C)n2)cc(N2CCCC2=O)c1 | Free fatty acid receptor 1 (Homo sapiens, UniProt O14842) | 7.15

Notebook entry, Free fatty acid receptor 1 (Homo sapiens, UniProt O14842) assay: pEC50 of `Cc1ccc(Nc2nc(N)nc(COc3ccc4ccc(=O)oc4c3)n2)cc1` = ? 5.89

Notebook entry, Free fatty acid receptor 1 (Homo sapiens, UniProt O14842) assay: pEC50 of `Cc1cc(OCc2nc(N)nc(NCCc3ccc(Cl)cc3)n2)cc(N2CCCC2=O)c1` = ? 6.71

Notebook entry, Free fatty acid receptor 1 (Homo sapiens, UniProt O14842) assay: pEC50 of `Cc1cc(=O)oc2cc(OCc3nc(N)nc(Nc4ccc(C(C)C)cc4)n3)ccc12` = ? 6.34

Notebook entry, Free fatty acid receptor 1 (Homo sapiens, UniProt O14842) assay: pEC50 of COC(CNc1nc(N)nc(COc2cc(C)cc(N3CCCC3=O)c2)n1)c1cccc(Cl)c1 (stereo unspecified) = ? 7.82

Notebook entry, Free fatty acid receptor 1 (Homo sapiens, UniProt O14842) assay: pEC50 of `Cc1cc(OCc2nc(N)nc(NCCc3ccccc3F)n2)cc(N2CCCC2=O)c1` = ? 7.96

Notebook entry, Free fatty acid receptor 1 (Homo sapiens, UniProt O14842) assay: pEC50 of `Cc1cc(OCc2nc(N)nc(NCCc3cc(Cl)cc(Cl)c3)n2)cc(N2CCCC2=O)c1` = ? 8.40

Notebook entry, Free fatty acid receptor 1 (Homo sapiens, UniProt O14842) assay: pEC50 of Cc1cc(OCc2nc(N)nc(NCC(C)c3cccc(Cl)c3)n2)cc(N2CCCC2=O)c1 (stereo unspecified) = ? 8.22

* * *

target: Free fatty acid receptor 4 (Homo sapiens, UniProt Q5NUL3); test: Agonist activity at N-terminal FLAG tagged human FFAR4 transfected in African green monkey COS-7 cells assessed as accumulation of inositol phosphate incubated for 90 mins by TopCount NXT counter based analysis; type: cell-based
Sequence (Q5NUL3 whole entry): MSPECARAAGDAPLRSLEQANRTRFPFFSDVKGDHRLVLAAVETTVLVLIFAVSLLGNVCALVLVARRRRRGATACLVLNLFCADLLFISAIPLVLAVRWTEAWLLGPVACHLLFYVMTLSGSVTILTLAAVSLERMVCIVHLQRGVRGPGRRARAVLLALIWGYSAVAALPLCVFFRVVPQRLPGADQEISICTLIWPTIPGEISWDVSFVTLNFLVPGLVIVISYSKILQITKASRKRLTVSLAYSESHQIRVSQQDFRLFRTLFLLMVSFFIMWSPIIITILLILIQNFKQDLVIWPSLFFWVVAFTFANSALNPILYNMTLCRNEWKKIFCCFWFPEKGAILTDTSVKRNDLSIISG
# label = class 1 if EC50 < 400 nM else class 0

Use the examples below as a reference point.
Structure Smiles String | Label
Cc1c(Cl)cc(Nc2nc(N)nc(COc3ccc4c(C)cc(=O)oc4c3)n2)cc1Cl | class 0
Cc1cc(OCc2nc(N)nc(NCCc3cccc(C#N)c3)n2)cc(N2CCCC2=O)c1 | class 0

Strictly below 400 nM in EC50? `Cc1cc(OCc2nc(N)nc(NCCc3ccccc3C)n2)cc(N2CCCC2=O)c1` class 1

Strictly below 400 nM in EC50? `Cc1cc(OCc2nc(N)nc(NCCc3cc(Cl)ccc3Cl)n2)cc(N2CCCC2=O)c1` class 1

Strictly below 400 nM in EC50? `Cc1cc(OCc2nc(N)nc(NCCc3ccccc3Cl)n2)cc(N2CCCC2=O)c1` class 1

Origin of measurements: ChEMBL document CHEMBL5236638
